Quick reference for superoxide response (% of plate) among some compounds
- MEASUREMENT NOTES: superoxide lowering in aged yeast cells, pilot screen, validation compound set (AID 2706);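 further: yeast exposed to compound for one week at 30 degrees C before staining; 100% = mean of all compound wells on the same plate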
- CONDITION PARAMETERS: S. cerevisiae aging, superoxide DHE fluorescence; at 10 µM, stronger effect = lower value
Only the number, expressed in %, is required.

Nc1ccc(N=Nc2ccccc2)c(N)n1 ... 114
COc1ccc2nc(NC(=O)Nc3ccccc3)sc2c1 ... 92.7
Cc1nnc(SCC(=O)N2CCCC(C(=O)c3ccc(Cl)cc3)C2)o1 (stereo unspecified) ... 95.6
O=C1OC(=O)C2C1[C@@H]1CC[C@H]2O1 (stereo partly specified) ... 94.4
CN(CCCN1CCOCC1)Cc1cn(C)nc1-c1ccccc1F ... 104
O=C(O)c1cc(-c2ccccc2)nc2ccccc12 ... 98.3

Query: # query: superoxide response (% of plate) of entry COc1ccc(C2(CCN=Cc3ccc(N(C)C)cc3)CCOC(C)(C)C2)cc1 (stereo unspecified)
Result: 98.3

Query: GET /values?readout=superoxide response (% of plate)&item= "COc1cccc(OC)c1C(=O)Nc1nc2ccc([N+](=O)[O-])cc2s1"
Result: 101

Query: Can you share its superoxide response (% of plate)? I mean this compound: "CC(=O)NCCCCCCNC(C)=O"
Result: 85.1

Query: # superoxide response (% of plate) lookup, item "CC1(C)CC(=O)c2cc(O)ccc2O1"
Result: 95.8

Query: Please look up its superoxide response (% of plate): Nc1ncnc2c1ncn2C1OC(CO)C(O)C1O (stereo unspecified)
Result: 102

Query: For the compound shown here, "CC(C)Cn1c(=S)[nH]c2cc(C(=O)O)ccc2c1=O" , give the reported superoxide response (% of plate).
Result: 106

Query: Which superoxide response (% of plate) value is on record for "O=P(O)(O)CP(=O)(O)O" ?
Result: 93

Query: Any idea what its superoxide response (% of plate) is? The compound is "COc1ccc(-c2onc(C)c2-c2ccc(C(=O)OC(C)C)o2)c(O)c1"
Result: 95.6

---

Examples of compounds with documented binding (% of control) follow.
- Tested on: anti-desmoglein-3 scFv antibody binding to human DSG3
- MEASUREMENT NOTES: inhibitors of anti-DSG3 scFv binding to DSG3, pilot screen, biochemical, validation compound set, bead-based, flow cytometry (AID 588368);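 further: signal is the median channel fluorescence of bead-bound GFP antibody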
- CONDITION PARAMETERS: Protein G beads, DSG3-Fc, scFv-GFP binding, at 10 µM, stronger effect = lower value
API: value field is a number in %; no unit string.

Take a look at these entries with their results.
CC(=O)NCCCCCCNC(C)=O ... 94.1
Cc1oc2cc(O)ccc2c(=O)c1Oc1ccccc1Br ... 102
CN1CCC(=C2c3ccccc3CC(=O)c3sccc32)CC1 ... 105
NC12CC3CC(C1)CC(O)(C3)C2 ... 99
CCc1cc(=O)oc2cc(OCC=C(C)C)ccc12 ... 103

Query: Form field: reported binding (% of control) of CCOc1cccc(N2C(=O)CC(N(CCc3ccc(OC)c(OC)c3)C(=O)CC)C2=O)c1 (centres undefined)
Result: 100

Query: # input compound: COc1ccc(C(=O)[C@H]2[C@H]3C(=O)N(c4ccccc4)C(=O)[C@H]3C3C=CC=NN32)cc1 (some centres undefined) ; wanted: its binding (% of control)
Result: 99.8

Query: Which binding (% of control) reading was recorded for the compound "Cc1oc2c(C)c3oc(=O)c4c(c3cc2c1C)CCCC4" ?
Result: 89.1

Query: Need binding (% of control), item "Cc1ccc(C(=O)NC(=S)NCCCN2CCOCC2)cc1"
Result: 103

Query: Need binding (% of control), item "COc1cc(Cl)cc2c1Sc1ccccc1/C2=C/CCN(C)C"
Result: 110

Query: Could you tell me which binding (% of control) is on file for "COc1ccc(-c2c(C)c3ccc(OCC(C)=O)cc3oc2=O)cc1" ?
Result: 103

Query: Consider the compound shown here: "COc1ccc(C(=O)Nc2ccccc2C(=O)NCCCn2ccnc2)cc1" What is its recorded binding (% of control)?
Result: 104

Query: Data request, read-out binding (% of control), for "C[C@]12CCC(=O)C=C1CC[C@@H]1[C@@H]2CC[C@@]2(C)[C@H]1CC[C@]2(O)C(=O)CO"
Result: 96.2

---

- MEASUREMENT NOTES: modulators of MEP2-GFP levels in yeast, confirmation, S. cerevisiae, flow cytometry GFP, cherry picks (AID 2272);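 further: ratio of well signal to plate DMSO mean so 100% equals DMSO level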
- CONDITION PARAMETERS: S. cerevisiae MEP2-GFP strain, 3 h, at 10 µM, stronger effect = higher value
QUANTITY NAME: GFP response vs DMSO (%)
Please state the figure in %; there is no need to write the unit.

Cc1ccc(C2CCN(C(=S)Nc3cccc(Cl)c3)C2)cc1 (stereo not given) ... 97.5
COc1cc(CCN2C(=O)c3cccc4cccc(c34)C2=O)c(S(=O)(=O)NCCCO)cc1OC ... 99.5
CCOC(=O)c1sc(Nc2nc3c(OC)cccc3s2)nc1C ... 112
O=[N+]([O-])c1cc(CN2CCN(c3cccc(C(F)(F)F)c3)CC2)c2cccnc2c1O ... 145

Kindly review the next compound as well.
Query: What value of measured GFP response vs DMSO is listed for "O=S(=O)(c1ccc(C2CCCCC2)cc1)N1CCOCC1" ?
Result: 105

---

- MEASUREMENT NOTES: RPL19A-GFP modulators, yeast TOR pathway, confirmation, cell-based, S. cerevisiae, flow cytometry, cherry picks, mother/daughter gates (AID 2270)
- CONDITION PARAMETERS: S. cerevisiae RPL19A-GFP strain, 3 h, measured here: daughter cell gate, at 10 µM, stronger effect = lower value, 100 = same GFP as DMSO wells
QUANTITY NAME: GFP response vs DMSO (%)
Record the value in %, omitting the unit from your answer.

Please review the entries below; each comes with its answer.
Cc1ccc(/C=N/Nc2ncc(Cl)cc2Cl)s1 ... 62.7
COC(=O)c1cc(N2C(=O)C3C(C2=O)C2(C)C=CC3(C)O2)ccc1Cl (configuration not stated) ... 101
COc1ccc(-c2nnc(NC(=O)c3ccc(S(=O)(=O)N4COCC4(C)C)cc3)o2)cc1 ... 98.1
Cc1c(Br)c(O)c(Br)c2sc(=O)oc12 ... 101
O=C(NCC(c1ccc(F)cc1)N1CCOCC1)c1cc(F)c(F)c(F)c1F (configuration not stated) ... 99.6
Cn1cc(/C=C/c2cc[n+](C)cc2)c2cc(F)ccc21 ... 102
CS(=O)(=O)N1N=C(c2ccco2)CC1c1ccc(Br)cc1 (configuration not stated) ... 98.1
Cc1noc2ncnc(Sc3c(Cl)cccc3Cl)c12 ... 102

Query: Requested read-out: GFP response vs DMSO. Entry: "CCOc1ccc(-c2noc(-c3cccnc3)n2)cc1OC"
Result: 97.1

Query: Returns the measured GFP response vs DMSO for the input compound. Input: "O=C1C=CC(=O)N1N(c1ccccc1)c1ccccc1"
Result: 90.7

Query: GFP response vs DMSO lookup needed for CS(=O)(=O)Nc1cccc(C2=NN(S(C)(=O)=O)C(c3ccc4c(c3)OCO4)C2)c1 (configuration not stated) , thanks.
Result: 98.9

Query: GFP response vs DMSO for "Fc1cccc(Cl)c1Cn1ncc2ccccc21" ?
Result: 96.1

---

Measured GFP response relative to DMSO, listed per entry.
- MEASUREMENT NOTES: LAP4-GFP expression modulators in yeast, confirmation, cell-based, cherry picks, flow cytometry, mother/daughter gates (AID 2271);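 further: ratio of sample to DMSO plate mean so 100% equals DMSO level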
- CONDITION PARAMETERS: S. cerevisiae LAP4-GFP strain, 3 h, measured here: mother cell gate response, at 10 µM, stronger effect = higher value, 100 means same as DMSO control
The answer is to be given in %; state only the numeric part.

O=C1C(Cl)=C(Nc2ccc(F)cc2)C(=O)N1CCc1ccccc1 ... 96.2
Cc1ccc(/C=C/C(=O)NC2CCCCCCC2)o1 ... 130
CCNC(=O)/C(C#N)=C/c1c(N(Cc2ccccc2)Cc2ccccc2)nc2ccccn2c1=O ... 103
COC(=O)Cn1c(C)c(/C=C/c2cc[n+](C)cc2)c2ccccc21 ... 117
O=C(NNC(=S)NC(=O)c1cn(-c2ccccc2)nc1-c1ccccc1)c1ccncc1 ... 146
CCN(CC)C(=O)c1ccc2c3c(cccc13)C(=O)N(CCc1ccc(OC)c(OC)c1)C2=O ... 109

Query: # query: GFP response relative to DMSO of entry "c1ccc2oc(SCc3nc4ccccc4s3)nc2c1"
Result: 106

Query: Item COc1ccc(C2CC(c3ccccc3)=NN2S(=O)(=O)c2ccccc2)cc1 (stereo not given) has what recorded GFP response relative to DMSO?
Result: 112

Query: Fill in the blank: the reported GFP response relative to DMSO of "COc1ccccc1N1C(=O)c2cccc3c(C(=O)O)ccc(c23)C1=O" is ____.
Result: 98.3

Query: Quick check: GFP response relative to DMSO of "CC(=O)Nc1ccc(NC(=O)c2ccccc2F)cc1" ?
Result: 94.1

Query: Data request, read-out GFP response relative to DMSO, for Cc1ccc(N2C(=O)C3C4C=CC(CNC(=S)N5CCN(c6ccccc6)CC5)(O4)C3C2=O)cc1 (stereo not given)
Result: 92.1

Query: // GFP response relative to DMSO lookup, key: "CCOc1cc(/C=C2\C(=N)N3N=C(S(=O)(=O)CC)SC3=NC2=O)ccc1OC(=O)c1ccco1"
Result: 90.1

Query: # get_value(readout='GFP response relative to DMSO', item= "COc1ccc(/C=C2\Sc3ccc(C(=O)N4CCc5ccccc5C4)cc3N(C)C2=O)cc1" )
Result: 98.3

Query: For the molecule "COCc1nnc(NC(=O)c2ccc(S(=O)(=O)N(C)c3ccccc3)cc2)o1" , what GFP response relative to DMSO is on record?
Result: 98.3

Query: # lookup: GFP response relative to DMSO of O=C(O)CSC1CC(=O)N(c2ccc(Cl)c(Cl)c2)C1=O (stereo not given)
Result: 107

Query: Any idea what its GFP response relative to DMSO is? The molecule is "Oc1ccc(Cl)cc1-c1cc(-c2ccco2)[nH]n1"
Result: 96.2

Query: Suppose we examine the molecule "COC(=O)c1ccc(/C=N/OCC(=O)NCCc2ccc(OC)c(OC)c2)cc1" ; what GFP response relative to DMSO value has been reported?
Result: 97.2

Query: Need GFP response relative to DMSO of "CCOCCCNC(=O)/C(C#N)=C/c1ccc([N+](=O)[O-])o1" , thanks.
Result: 129

Query: Value lookup for GFP response relative to DMSO; key = "CCc1nnc(NC(=O)c2ccc(S(=O)(=O)N(CCOC)CCOC)cc2)o1"
Result: 90.8

Query: Given the molecule "Cc1ccsc1/C=N/Nc1ncc(Cl)cc1Cl" , what is its reported GFP response relative to DMSO?
Result: 189

Query: Endpoint output: GFP response relative to DMSO of "Cc1ccc(N2C3=C(C(=O)CC(C)(C)C3)C(c3cn(C)nc3C)C3=C2CC(C)(C)CC3=O)cc1" . Value?
Result: 117

Query: Any idea what GFP response relative to DMSO was measured for "CCn1cc(/C=C/c2cc[n+](C)cc2)c2ccccc21" ?
Result: 117
